Documented half-life across a set of compounds
- Assay summary: Pharmacokinetic determination in SD rats (i.v. and i.g.)
- Assay type: in vivo
- Condition context: male, Sprague-Dawley (SD), rat, plasma, iv, 1 mg/kg
Measurement name: half-life

Compound: O=C1c2ccc(Oc3c(Cl)cc(-n4ncc(=O)[nH]c4=O)cc3Cl)cc2CCN1Cc1cccc(C(F)(F)F)c1 [Example 34]
Measurement name: half-life
Result: 9.87 h
//
Compound: O=C1c2ccc(Oc3c(Cl)cc(-n4ncc(=O)[nH]c4=O)cc3Cl)cc2CCN1Cc1ccc(F)cc1 [Example 20]
Measurement name: half-life
Result: 3.16 h
//
Compound: O=C1c2ccc(Oc3c(Cl)cc(-n4ncc(=O)[nH]c4=O)cc3Cl)cc2CCN1c1cccnc1 [Example 49]
Measurement name: half-life
Result: 1.14 h
//
Compound: O=C1c2ccc(Oc3c(Cl)cc(-n4ncc(=O)[nH]c4=O)cc3Cl)cc2CCN1Cc1ccccn1 [Example 46]
Measurement name: half-life
Result: 4.24 h
//
Compound: O=C1c2ccc(Oc3c(Cl)cc(-n4ncc(=O)[nH]c4=O)cc3Cl)cc2CCN1c1cccc(F)c1 [Example 42]
Measurement name: half-life
Result: 2.97 h
//
Compound: O=C1c2ccc(Oc3c(Cl)cc(-n4ncc(=O)[nH]c4=O)cc3Cl)cc2CCN1Cc1cccnc1 [Example 45]
Measurement name: half-life
Result: 1.15 h

----------
- Assay summary: Pharmacokinetic determination in SD rats (i.v. and i.g.)
- Type: in vivo
- Condition context: male, Sprague-Dawley (SD), rat, plasma, iv, 1 mg/kg
Documented AUC(0-inf) across a set of compounds

Compound: O=C1c2ccc(Oc3c(Cl)cc(-n4ncc(=O)[nH]c4=O)cc3Cl)cc2CCN1c1ccccc1F [Example 44]
AUC(0-inf) / ng·h/mL: 2150
--
Compound: O=C1c2ccc(Oc3c(Cl)cc(-n4ncc(=O)[nH]c4=O)cc3Cl)cc2CCN1c1cccc(F)c1 [Example 42]
AUC(0-inf) / ng·h/mL: 1960
--
Compound: O=C1c2ccc(Oc3c(Cl)cc(-n4ncc(=O)[nH]c4=O)cc3Cl)cc2CCN1Cc1cccc(OC(F)(F)F)c1 [Example 43]
AUC(0-inf) / ng·h/mL: 47700
--
Compound: O=C1c2ccc(Oc3c(Cl)cc(-n4ncc(=O)[nH]c4=O)cc3Cl)cc2CCN1c1ccc(F)cc1 [Example 28]
AUC(0-inf) / ng·h/mL: 9640
--
Compound: O=C1c2ccc(Oc3c(Cl)cc(-n4ncc(=O)[nH]c4=O)cc3Cl)cc2CCN1Cc1ccc(Cl)cc1 [Example 37]
AUC(0-inf) / ng·h/mL: 21100
--
Compound: Cc1ccc(CN2CCc3cc(Oc4c(Cl)cc(-n5ncc(=O)[nH]c5=O)cc4Cl)ccc3C2=O)cc1 [Example 21]
AUC(0-inf) / ng·h/mL: 1020
--
Compound: O=C1c2ccc(Oc3c(Cl)cc(-n4ncc(=O)[nH]c4=O)cc3Cl)cc2CCN1Cc1ccncc1 [Example 24]
AUC(0-inf) / ng·h/mL: 3790

----------
- Assay summary: Pharmacokinetic determination in SD rats (i.v. and i.g.)
- Type: in vivo
- Condition context: male, Sprague-Dawley (SD), rat, plasma, iv, 1 mg/kg, read-out: VSS
- Procedure: Test purposes: The following method was used to determine the pharmacokinetics of the compound of the present invention. […] Samples were processed by liquid-liquid extraction, chromatographically separated, quantitatively analyzed by multiple reaction ion monitoring (MRM) on a triple quadrupole tandem mass spectrometer, and the concentration of the results was calculated by instrument quantitative software. […]
Documented Vd across a set of molecules
Measurement name: Vd (L/kg)

Structure as smiles: O=C1c2ccc(Oc3c(Cl)cc(-n4ncc(=O)[nH]c4=O)cc3Cl)cc2CCN1c1cccnc1
Units of measure: L/kg
Measured number: 0.306
--
Structure as smiles: O=C1c2ccc(Oc3c(Cl)cc(-n4ncc(=O)[nH]c4=O)cc3Cl)cc2CCN1Cc1cccnc1
Units of measure: L/kg
Measured number: 0.57
--
Structure as smiles: O=C1c2ccc(Oc3c(Cl)cc(-n4ncc(=O)[nH]c4=O)cc3Cl)cc2CCN1c1cccc(F)c1
Units of measure: L/kg
Measured number: 0.658
--
Structure as smiles: O=C1c2ccc(Oc3c(Cl)cc(-n4ncc(=O)[nH]c4=O)cc3Cl)cc2CCN1Cc1ccc(C(F)(F)F)cc1
Units of measure: L/kg
Measured number: 0.194
--
Structure as smiles: O=C1c2ccc(Oc3c(Cl)cc(-n4ncc(=O)[nH]c4=O)cc3Cl)cc2CCN1c1ccccc1F
Units of measure: L/kg
Measured number: 0.4
--
Structure as smiles: O=C1c2ccc(Oc3c(Cl)cc(-n4ncc(=O)[nH]c4=O)cc3Cl)cc2CCN1Cc1cccc(OC(F)(F)F)c1
Units of measure: L/kg
Measured number: 0.26
--
Structure as smiles: O=C1c2ccc(Oc3c(Cl)cc(-n4ncc(=O)[nH]c4=O)cc3Cl)cc2CCN1Cc1ccc(Cl)cc1
Units of measure: L/kg
Measured number: 0.212
--
Structure as smiles: O=C1c2ccc(Oc3c(Cl)cc(-n4ncc(=O)[nH]c4=O)cc3Cl)cc2CCN1c1ccc(F)cc1
Units of measure: L/kg
Measured number: 0.246
--
Structure as smiles: O=C1c2ccc(Oc3c(Cl)cc(-n4ncc(=O)[nH]c4=O)cc3Cl)cc2CCN1Cc1ccncc1
Units of measure: L/kg
Measured number: 0.337
--
Structure as smiles: Cc1ccc(CN2CCc3cc(Oc4c(Cl)cc(-n5ncc(=O)[nH]c5=O)cc4Cl)ccc3C2=O)cc1
Units of measure: L/kg
Measured number: 0.308
--
Structure as smiles: O=C1c2ccc(Oc3c(Cl)cc(-n4ncc(=O)[nH]c4=O)cc3Cl)cc2CCN1Cc1ccccn1
Units of measure: L/kg
Measured number: 0.424
--
Structure as smiles: O=C1c2ccc(Oc3c(Cl)cc(-n4ncc(=O)[nH]c4=O)cc3Cl)cc2CCN1Cc1cccc(C(F)(F)F)c1
Units of measure: L/kg
Measured number: 0.531
--
Structure as smiles: O=C1c2ccc(Oc3c(Cl)cc(-n4ncc(=O)[nH]c4=O)cc3Cl)cc2CCN1Cc1ccc(F)cc1
Units of measure: L/kg
Measured number: 0.251
